Target: CCK receptor (pancreas) (Rattus norvegicus, UniProt P30551)
Construct: The whole pancreas was dissected free of fat tissue and was homogenized; from tissue; host or cells: rat pancreas (male Sprague-Dawley), washed membrane pellet of homogenate
Sequence (P30551 whole entry): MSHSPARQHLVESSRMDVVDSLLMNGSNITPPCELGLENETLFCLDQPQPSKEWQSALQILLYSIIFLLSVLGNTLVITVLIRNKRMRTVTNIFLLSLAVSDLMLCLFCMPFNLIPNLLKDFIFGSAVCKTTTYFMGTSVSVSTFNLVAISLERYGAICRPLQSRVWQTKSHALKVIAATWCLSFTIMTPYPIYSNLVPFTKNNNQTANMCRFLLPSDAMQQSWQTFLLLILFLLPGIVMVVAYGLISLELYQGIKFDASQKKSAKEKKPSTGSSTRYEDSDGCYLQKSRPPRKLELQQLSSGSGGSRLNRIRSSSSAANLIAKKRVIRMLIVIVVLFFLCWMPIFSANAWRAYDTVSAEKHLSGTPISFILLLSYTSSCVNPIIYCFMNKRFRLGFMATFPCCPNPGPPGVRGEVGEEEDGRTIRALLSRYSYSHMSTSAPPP
Test: 125I-CCK receptor binding (pancreas)
Parameters: species or system rat (male Sprague-Dawley)
Settings: rat pancreas membranes, 125I-CCK-33, 37° C., 30 minutes
reported.property: IC50
Give me the value, and tack the unit on after it.

input: State its IC50 for this molecule: Cc1nnc2n1-c1ccccc1C(c1ccccc1)=NC2NC(=O)Nc1ccc(Cl)cc1 (stereo not shown)
output: 0.082 µM

----------
Target: CCK receptor (pancreas) (Rattus norvegicus, UniProt P30551)
Construct: The whole pancreas was dissected free of fat tissue and was homogenized; from tissue; host or cells: rat pancreas (male Sprague-Dawley), washed membrane pellet of homogenate
Assay: 125I-CCK receptor binding (pancreas)
Parameters: species or system rat (male Sprague-Dawley)
reported.property: IC50 (nM)
Reply numerically in nM, unit not repeated.

input: State its IC50 for this compound: O=C(Nc1ccc(Cl)cc1)NC1N=C(c2ccccc2)c2ccccc2-n2cnnc21 (stereo not shown)
output: 120

Every entry's value here was drawn from patent US5185331A.
